systemUnderTest: T1, Fusion protein of extracellular domain of cynomolgus monkey TIGIT and mouse IgG2a Fc fragment (cynomolgus … (cynomolgus monkey))
T1 construct: The entry includes the signal peptide (limits not recoverable) and the mouse IgG2a Fc
T1 sequence (chain, as listed by the source limits assumed): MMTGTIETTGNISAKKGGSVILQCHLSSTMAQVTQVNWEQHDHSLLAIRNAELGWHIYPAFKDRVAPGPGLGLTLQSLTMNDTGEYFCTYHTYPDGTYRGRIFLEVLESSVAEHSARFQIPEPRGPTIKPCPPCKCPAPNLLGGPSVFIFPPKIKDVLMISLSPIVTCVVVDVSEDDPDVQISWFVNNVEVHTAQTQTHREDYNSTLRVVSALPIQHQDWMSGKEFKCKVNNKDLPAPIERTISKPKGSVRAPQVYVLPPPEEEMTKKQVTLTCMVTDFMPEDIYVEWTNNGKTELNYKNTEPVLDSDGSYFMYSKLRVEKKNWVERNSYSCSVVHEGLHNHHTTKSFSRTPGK
assayNotes: ELISA, cynomolgus monkey TIGIT ECD-mFc
assayMetric: EC50 (nM)
Your answer should be a plain number; it is taken to be in nM.

TIGIT-002-H2L2 (antibody, V domains shown, Humanized anti-TIGIT antibody) VH: EVQLQESGPGLVKPSETLSLTCAVSGYSITSDSWNWIRQPPGKKLEWIGYISYSGNTYYNPSLKSRVTISRDTSKNQFSLKLSSVTAADTAVYYCARLDFSNYGGAVDYWGQGTTVTVSS VL: DIVMTQTPLSLSVTPGQPASISCKASQNVRTAVAWYQQKPGQSPQLMIYSASYRYTGVPDRFSGSGSGTDFTLKISRVEAEDVGVYYCQQYYTTPWTFGGGTKVEIK :: 0.0554

The record that follows has no EC50 shown yet.
Fill in the blank: the reported EC50 of TIGIT-070-H2L2 (antibody, V domains shown, Humanized anti-TIGIT antibody) VH: EVQLVQSGAEVKKPGASVKVSCKASGYTFTNYYMHWVRQAPGQRLEWMGRIDPDSGGSKYNEKFKSRVTITVDKLSSTAYMELSSLRSEDTAVYYCAREGHYGFYSDYWGQGTTVTVSS VL: DIQMTQSPSSLSASVGDRVTITCRVSENIYSYLAWYQQKPGKSPKLLVYNAKTLAEGVPSRFSGSGSGTDFTLTISSLQPEDFATYYCQHHYGNPLTFGPGTKVDIK is ____.
0.0112
